Each recorded value in this set is attributed to the supplement of paper PMC11246515.

experimentSummary: total protein half-life in vivo (active degradation + dilution); higher = more stable protein
statedConditions: E. coli NCM3722 delta-clpP; growth: N-lim chemostat; doubling time 6 h
assayMetric: total protein half-life in vivo (h)
Numbers only, in h.

- macromoleculeSequence: "MNEFSILCRVLGSLYYRQPQDPLLVPLFTLIREGKLAANWPLEQDELLTRLQKSCDMTQVSADYNALFIGDECAVPPYRSAWVEGATEAEVRAFLSERGMPLADTPADHIGTLLLAASWLEDQSTEDESEALETLFSEYLLPWCGAFLGKVEAHATTPFWRTMAPLTRDAISAMWDELEEDSEE"
  unit: "h"
  total protein half-life in vivo: 5.83

Please examine the following record next.
Q: // lookup total protein half-life in vivo for MRFYRPLGRISALTFDLDDTLYDNRPVILRTEREALTFVQNYHPALRSFQNEDLQRLRQAVREAEPEIYHDVTRWRFRSIEQAMLDAGLSAEEASAGAHAAMINFAKWRSRIDVPQQTHDTLKQLAKKWPLVAITNGNAQPELFGLGDYFEFVLRAGPHGRSKPFSDMYFLAAEKLNVPIGEILHVGDDLTTDVGGAIRSGMQACWIRPENGDLMQTWDSRLLPHLEISRLASLTSLI [P0ADP0]
Ans: 4.56

---

For each record, write down the corresponding total protein half-life in vivo.
experimentSummary: total protein half-life in vivo (active degradation + dilution); higher = more stable protein
statedConditions: E. coli NCM3722 delta-clpP delta-lon delta-hslV; growth: N-lim chemostat; doubling time 6 h

Field: example entries. Status: answers known.
- macromoleculeSequence: "MIKSALLVLEDGTQFHGRAIGATGSAVGEVVFNTSMTGYQEILTDPSYSRQIVTLTYPHIGNVGTNDADEESSQVHAQGLVIRDLPLIASNFRNTEDLSSYLKRHNIVAIADIDTRKLTRLLREKGAQNGCIIAGDNPDAALALEKARAFPGLNGMDLAKEVTTAEAYSWTQGSWTLTGGLPEAKKEDELPFHVVAYDFGAKRNILRMLVDRGCRLTIVPAQTSAEDVLKMNPDGIFLSNGPGDPAPCDYAITAIQKFLETDIPVFGICLGHQLLALASGAKTVKMKFGHHGGNHPVKDVEKNVVMITAQNHGFAVDEATLPANLRVTHKSLFDGTLQGIHRTDKPAFSFQGHPEASPGPHDAAPLFDHFIELIEQYRKTAK [P0A6F1]"
  result: "4.95 h"
- macromoleculeSequence: "MTDVLLCVGNSMMGDDGAGPLLAEKCAAAPKGNWVVIDGGSAPENDIVAIRELRPTRLLIVDATDMGLNPGEIRIIDPDDIAEMFMMTTHNMPLNYLIDQLKEDIGEVIFLGIQPDIVGFYYPMTQPIKDAVETVYQRLEGWEGNGGFAQLAVEEE [P0AEV9]"
  result: "4.89 h"

Please examine the following record next.
Q: // lookup total protein half-life in vivo for MYQVVASDLDGTLLSPDHTLSPYAKETLKLLTARGINFVFATGRHHVDVGQIRDNLEIKSYMITSNGARVHDLDGNLIFAHNLDRDIASDLFGVVNDNPDIITNVYRDDEWFMNRHRPEEMRFFKEAVFQYALYEPGLLEPEGVSKVFFTCDSHEQLLPLEQAINARWGDRVNVSFSTLTCLEVMAGGVSKGHALEAVAKKLGYSLKDCIAFGDGMNDAEMLSMAGKGCIMGSAHQRLKDLHPELEVIGTNADDAVPHYLRKLYLS
Ans: 3.6 h

---

experimentSummary: total protein half-life in vivo (active degradation + dilution); higher = more stable protein
statedConditions: E. coli NCM3722 delta-clpP; growth: N-lim chemostat; doubling time 6 h
assayMetric: total protein half-life in vivo (h)
One number for each entry, in h.

Fill in total protein half-life in vivo for each of the 2 sequences listed.
1. MPAENIVEVHHLKKSVGQGEHELSILTGVELVVKRGETIALVGESGSGKSTLLAILAGLDDGSSGEVSLVGQPLHNMDEEARAKLRAKHVGFVFQSFMLIPTLNALENVELPALLRGESSAESRNGAKALLEQLGLGKRLDHLPAQLSGGEQQRVALARAFNGRPDVLFADEPTGNLDRQTGDKIADLLFSLNREHGTTLIMVTHDLQLAARCDRCLRLVNGQLQEEA [P0A9T8]
2. MKKWSRHLLAAGALALGMSAAHADDNNTLYFYNWTEYVPPGLLEQFTKETGIKVIYSTYESNETMYAKLKTYKDGAYDLVVPSTYYVDKMRKEGMIQKIDKSKLTNFSNLDPDMLNKPFDPNNDYSIPYIWGATAIGVNGDAVDPKSVTSWADLWKPEYKGSLLLTDDAREVFQMALRKLGYSGNTTDPKEIEAAYNELKKLMPNVAAFNSDNPANPYMEGEVNLGMIWNGSAFVARQAGTPIDVVWPKEGGIFWMDSLAIPANAKNKEGALKLINFLLRPDVAKQVAETIGYPTPNLAARKLLSPEVANDKTLYPDAETIKNGEWQNDVGAASSIYEEYYQKLKAGR [P0AFK9]

Ans:
6.68
5.36

---

experimentSummary: total protein half-life in vivo (active degradation + dilution); higher = more stable protein
statedConditions: wild type E. coli NCM3722; growth: C-lim chemostat; doubling time 12 h
For each record, write down the corresponding total protein half-life in vivo.
Give bare numbers, in h.

- macromoleculeSequence: "MTIKNVICDIDGVLMHDNVAVPGAAEFLHGIMDKGLPLVLLTNYPSQTGQDLANRFATAGVDVPDSVFYTSAMATADFLRRQEGKKAYVVGEGALIHELYKAGFTITDVNPDFVIVGETRSYNWDMMHKAAYFVANGARFIATNPDTHGRGFYPACGALCAGIEKISGRKPFYVGKPSPWIIRAALNKMQAHSEETVIVGDNLRTDILAGFQAGLETILVLSGVSSLDDIDSMPFRPSWIYPSVAEIDVI [P0AF24]"
  unit: "h"
  total protein half-life in vivo: 11.6

Please examine the following record next.
Q: // lookup total protein half-life in vivo for MSIRIIPQDELGSSEKRTADMIPPLLFPRLKNLYNRRAERLRELAENNPLGDYLRFAALIAHAQEVVLYDHPLEMDLTARIKEASAQGKPPLDIHVLPRDKHWQKLLMALIAELKPEMSGPALAVIENLEKASTQELEDMASALFASDFSSVSSDKAPFIWAALSLYWAQMANLIPGKARAEYGEQRQYCPVCGSMPVSSMVQIGTTQGLRYLHCNLCETEWHVVRVKCSNCEQSGKLHYWSLDDEQAAIKAESCDDCDTYLKILYQEKDPKIEAVADDLASLVLDARMEQEGYARSSINPFLFPGEGE
Ans: 6.07

---

experimentSummary: total protein half-life in vivo (active degradation + dilution); higher = more stable protein
statedConditions: wild type E. coli NCM3722; growth: P-lim chemostat; doubling time 6 h
Binary classification by total protein half-life in vivo, with 5 h as an inclusive lower bound for T; all other cases are F.

Reference set, count: 9
- macromoleculeSequence: "MPLLDSFTVDHTRMEAPAVRVAKTMNTPHGDAITVFDLRFCVPNKEVMPERGIHTLEHLFAGFMRNHLNGNGVEIIDISPMGCRTGFYMSLIGTPDEQRVADAWKAAMEDVLKVQDQNQIPELNVYQCGTYQMHSLQEAQDIARSILERDVRINSNEELALPKEKLQELHI"
  categoryLabel: "F"
- macromoleculeSequence: "MTTMLEVAKRAGVSKATVSRVLSGNGYVSQETKDRVFQAVEESGYRPNLLARNLSAKSTQTLGLVVTNTLYHGIYFSELLFHAARMAEEKGRQLLLADGKHSAEEERQAIQYLLDLRCDAIMIYPRFLSVDEIDDIIDAHSQPIMVLNRRLRKNSSHSVWCDHKQTSFNAVAELINAGHQEIAFLTGSMDSPTSIERLAGYKDALAQHGIALNEKLIANGKWTPASGAEGVEMLLERGAKFSALVASNDDMAIGAMKALHERGVAVPEQVSVIGFDDIAIAPYTVPALSSVKIPVTEMIQEIIGRLIFMLDGGDFSPPKTFSGKLIRRDSLIAPSR"
  categoryLabel: "F"
- macromoleculeSequence: "MKLFAQGTSLDLSHPHVMGILNVTPDSFSDGGTHNSLIDAVKHANLMINAGATIIDVGGESTRPGAAEVSVEEELQRVIPVVEAIAQRFEVWISVDTSKPEVIRESAKVGAHIINDIRSLSEPGALEAAAETGLPVCLMHMQGNPKTMQEAPKYDDVFAEVNRYFIEQIARCEQAGIAKEKLLLDPGFGFGKNLSHNYSLLARLAEFHHFNLPLLVGMSRKSMIGQLLNVGPSERLSGSLACAVIAAMQGAHIIRVHDVKETVEAMRVVEATLSAKENKRYE [P0AC13]"
  categoryLabel: "T"
- macromoleculeSequence: "MSKNYHIAVLPGDGIGPEVMTQALKVLDAVRNRFAMRITTSHYDVGGAAIDNHGQPLPPATVEGCEQADAVLFGSVGGPKWEHLPPDQQPERGALLPLRKHFKLFSNLRPAKLYQGLEAFCPLRADIAANGFDILCVRELTGGIYFGQPKGREGSGQYEKAFDTEVYHRFEIERIARIAFESARKRRHKVTSIDKANVLQSSILWREIVNEIATEYPDVELAHMYIDNATMQLIKDPSQFDVLLCSNLFGDILSDECAMITGSMGMLPSASLNEQGFGLYEPAGGSAPDIAGKNIANPIAQILSLALLLRYSLDADDAACAIERAINRALEEGIRTGDLARGAAAVSTDEMGDIIARYVAEGV"
  categoryLabel: "T"
- macromoleculeSequence: "MKFKVIALAALMGISGMAAQANELPDGPHIVTSGTASVDAVPDIATLAIEVNVAAKDAATAKKQADERVAQYISFLELNQIAKKDISSANLRTQPDYDYQDGKSILKGYRAVRTVEVTLRQLDKLNSLLDGALKAGLNEIRSVSLGVAQPDAYKDKARKAAIDNAIHQAQELANGFHRKLGPVYSVRYHVSNYQPSPMVRMMKADAAPVSAQETYEQAAIQFDDQVDVVFQLEPVDQQPAKTPAAQ [P0ADS6]"
  categoryLabel: "T"
- macromoleculeSequence: "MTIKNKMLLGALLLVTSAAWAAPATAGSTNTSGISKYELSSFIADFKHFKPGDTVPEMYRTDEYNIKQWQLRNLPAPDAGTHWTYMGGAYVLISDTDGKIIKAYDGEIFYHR"
  categoryLabel: "T"
- macromoleculeSequence: "MKLGFIGLGIMGTPMAINLARAGHQLHVTTIGPVADELLSLGAVSVETARQVTEASDIIFIMVPDTPQVEEVLFGENGCTKASLKGKTIVDMSSISPIETKRFARQVNELGGDYLDAPVSGGEIGAREGTLSIMVGGDEAVFERVKPLFELLGKNITLVGGNGDGQTCKVANQIIVALNIEAVSEALLFASKAGADPVRVRQALMGGFASSRILEVHGERMIKRTFNPGFKIALHQKDLNLALQSAKALALNLPNTATCQELFNTCAANGGSQLDHSALVQALELMANHKLA"
  categoryLabel: "F"
- macromoleculeSequence: "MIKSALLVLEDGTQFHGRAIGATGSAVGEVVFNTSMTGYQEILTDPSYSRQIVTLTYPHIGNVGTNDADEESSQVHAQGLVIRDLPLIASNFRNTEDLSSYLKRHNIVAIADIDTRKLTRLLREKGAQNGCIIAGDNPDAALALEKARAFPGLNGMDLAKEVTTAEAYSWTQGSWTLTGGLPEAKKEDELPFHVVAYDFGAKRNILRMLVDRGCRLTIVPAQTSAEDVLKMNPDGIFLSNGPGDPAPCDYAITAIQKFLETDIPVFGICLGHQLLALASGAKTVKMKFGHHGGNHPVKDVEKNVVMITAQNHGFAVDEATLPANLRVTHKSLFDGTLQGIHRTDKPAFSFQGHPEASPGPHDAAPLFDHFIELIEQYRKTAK [P0A6F1]"
  categoryLabel: "T"
- macromoleculeSequence: "MSDNAQLTGLCDRFRGFYPVVIDVETAGFNAKTDALLEIAAITLKMDEQGWLMPDTTLHFHVEPFVGANLQPEALAFNGIDPNDPDRGAVSEYEALHEIFKVVRKGIKASGCNRAIMVAHNANFDHSFMMAAAERASLKRNPFHPFATFDTAALAGLALGQTVLSKACQTAGMDFDSTQAHSALYDTERTAVLFCEIVNRWKRLGGWPLSAAEEV"
  categoryLabel: "T"

Q: total protein half-life in vivo >= 5 h for MPSLSKEAALVHEALVARGLETPLRPPVHEMDNETRKSLIAGHMTEIMQLLNLDLADDSLMETPHRIAKMYVDEIFSGLDYANFPKITLIENKMKVDEMVTVRDITLTSTCEHHFVTIDGKATVAYIPKDSVIGLSKINRIVQFFAQRPQVQERLTQQILIALQTLLGTNNVAVSIDAVHYCVKARGIRDATSATTTTSLGGLFKSSQNTRHEFLRAVRHHN [P0A6T5] ?
Ans: F
